# target of assay: Human HDAC6 (Homo sapiens (Human))
# Sequence (Q9UBN7 whole entry): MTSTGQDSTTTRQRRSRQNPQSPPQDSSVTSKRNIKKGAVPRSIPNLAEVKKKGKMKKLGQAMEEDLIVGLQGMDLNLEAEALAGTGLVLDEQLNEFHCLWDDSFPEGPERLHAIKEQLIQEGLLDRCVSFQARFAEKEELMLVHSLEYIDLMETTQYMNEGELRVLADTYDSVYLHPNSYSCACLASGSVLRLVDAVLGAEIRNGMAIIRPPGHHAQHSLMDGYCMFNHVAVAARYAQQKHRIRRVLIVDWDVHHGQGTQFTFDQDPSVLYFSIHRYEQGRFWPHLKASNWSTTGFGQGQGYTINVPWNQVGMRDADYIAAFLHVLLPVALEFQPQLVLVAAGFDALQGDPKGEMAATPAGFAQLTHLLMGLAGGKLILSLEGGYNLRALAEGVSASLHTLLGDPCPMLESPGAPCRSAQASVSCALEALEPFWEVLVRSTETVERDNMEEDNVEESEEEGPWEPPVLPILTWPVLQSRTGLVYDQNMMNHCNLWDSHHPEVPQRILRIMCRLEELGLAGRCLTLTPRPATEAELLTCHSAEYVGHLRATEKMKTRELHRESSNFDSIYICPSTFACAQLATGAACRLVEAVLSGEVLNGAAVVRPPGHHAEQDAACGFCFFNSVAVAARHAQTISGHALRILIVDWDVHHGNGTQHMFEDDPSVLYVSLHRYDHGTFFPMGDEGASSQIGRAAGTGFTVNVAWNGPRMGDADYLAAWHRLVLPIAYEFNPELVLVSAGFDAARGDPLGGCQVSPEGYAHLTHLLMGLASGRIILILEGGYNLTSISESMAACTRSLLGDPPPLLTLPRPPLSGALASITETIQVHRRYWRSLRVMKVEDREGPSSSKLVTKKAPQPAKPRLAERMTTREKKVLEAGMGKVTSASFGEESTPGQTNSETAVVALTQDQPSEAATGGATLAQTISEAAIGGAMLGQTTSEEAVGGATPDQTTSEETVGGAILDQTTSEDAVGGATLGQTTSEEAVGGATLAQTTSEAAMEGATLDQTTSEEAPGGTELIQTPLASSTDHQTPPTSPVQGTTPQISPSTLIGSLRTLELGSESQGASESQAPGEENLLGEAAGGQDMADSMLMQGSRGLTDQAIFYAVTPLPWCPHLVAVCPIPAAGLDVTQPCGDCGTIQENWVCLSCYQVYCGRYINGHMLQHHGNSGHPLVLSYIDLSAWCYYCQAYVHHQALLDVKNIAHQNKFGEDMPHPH
# assay name: HDAC6 fluorogenic peptide deacetylation inhibition assay
# Assay type: biochemical
# details: binding efficiency index, BEI=pIC50/MW, MW in kDa
assay readout: BEI
Number, no unit, nothing else.

Check out these entries, answers already filled in.
Cc1cn(Cc2ccc(C(=O)NO)cc2)c2ccccc12 [drawing 159]; 29.6
O=C(NO)c1ccc(CN(c2ccccc2)c2ccccc2)cc1 [drawing 162]; 26.3

Entry O=C(NO)c1ccc(Cn2ccc3ccccc32)cc1 [drawing 157] , BEI reported as 30.1

Entry Cc1cc2ccccc2n1Cc1ccc(C(=O)NO)cc1 [drawing 158] , BEI reported as 30.7
